- Test system: white mice
- experimental protocol: analgesic effect, inhibition of acetic acid "writhing" reactions (Wirth et al.)
- Type: in vivo
- condition set: therapeutic index, analgesic effect
recorded endpoint: Analgesic effect Therap.index
Keep the answer to the number alone.

Data request, read-out Analgesic effect Therap.index, for CN(C)CCCOC1(Cc2ccccc2)CC2CCC1(C)C2(C)C (single isomer, unassigned) [Example 7]
17.1

Data request, read-out Analgesic effect Therap.index, for CC(COC1(Cc2ccccc2)CC2CCC1(C)C2(C)C)CN(C)C (racemic) [Example 2]
20.0

Data request, read-out Analgesic effect Therap.index, for CC(COC1(c2ccc(Cl)cc2)CC2CCC1(C)C2(C)C)CN(C)C (single isomer, unassigned; (+)) [Example 13]
10.0

Data request, read-out Analgesic effect Therap.index, for CN(C)CCOC1(c2ccccc2)CC2CCC1(C)C2(C)C (racemic) [Example 15]
39.0

Data request, read-out Analgesic effect Therap.index, for CCN(CC)CCCOC1(Cc2ccccc2)CC2CCC1(C)C2(C)C (racemic) [Example 6]
40.0

Data request, read-out Analgesic effect Therap.index, for CN(C)CCCOC1(Cc2ccccc2)CC2CCC1(C)C2(C)C (racemic) [Example 1]
13.3

Data request, read-out Analgesic effect Therap.index, for COc1ccc(C2(OCCCN(C)C)CC3CCC2(C)C3(C)C)cc1 (racemic) [Example 22]
13.8

Data request, read-out Analgesic effect Therap.index, for CCN(CC)CCCOC1(c2cccs2)CC2CCC1(C)C2(C)C (racemic) [Example 19]
8.3

----------
- Test system: white mice
- experimental protocol: analgesic effect, inhibition of acetic acid "writhing" reactions (Wirth et al.)
- Format: in vivo
- condition set: Mus musculus; oral, 1 hour before i.p. 0.4 ml 0.5% acetic acid; read-out: Analgesic effect ED50
recorded endpoint: ED50
Don't forget the unit after the value.

Missing value: ED50, white mice, entry CCN(CC)CCCOC1(c2cccs2)CC2CCC1(C)C2(C)C (racemic) . Fill in?
120 mg/kg

Missing value: ED50, white mice, entry CN(C)CCCOC1(Cc2ccc(Cl)cc2)CC2CCC1(C)C2(C)C (racemic) . Fill in?
75 mg/kg

Missing value: ED50, white mice, entry CC(C)N(CCCOC1(Cc2ccccc2)CC2CCC1(C)C2(C)C)C(C)C (racemic) . Fill in?
100 mg/kg

Missing value: ED50, white mice, entry CCN(CC)CCCOC1(c2ccccc2)CC2CCC1(C)C2(C)C (racemic) . Fill in?
70 mg/kg

Missing value: ED50, white mice, entry COc1ccc(C2(OCCCN(C)C)CC3CCC2(C)C3(C)C)cc1 (racemic) . Fill in?
72 mg/kg

Missing value: ED50, white mice, entry CCN(CC)CCCOC1(Cc2ccccc2)CC2CCC1(C)C2(C)C (racemic) . Fill in?
50 mg/kg

Missing value: ED50, white mice, entry CN(C)CCCOC1(c2cccs2)CC2CCC1(C)C2(C)C (racemic) . Fill in?
140 mg/kg

Missing value: ED50, white mice, entry CC1(C)C2CCC1(C)C(Cc1ccccc1)(OCCCN1CCN(Cc3ccccc3)CC1)C2 (racemic) . Fill in?
200 mg/kg

----------
- Test system: white mice
- experimental protocol: analgesic effect, inhibition of acetic acid "writhing" reactions (Wirth et al.)
- Type: in vivo
- condition set: Mus musculus, po, read-out: Analgesic effect ED50
Give ED50 for every item shown.
Give the quantity in mg/kg, number only.

Data request, read-out ED50, for CN(C)CCCOC1(Cc2ccccc2)CC2CCC1(C)C2(C)C (single isomer, unassigned) [Example 7]
70

Data request, read-out ED50, for CCN(CC)CCOC1(Cc2ccccc2)CC2CCC1(C)C2(C)C (single isomer, unassigned)
45

Data request, read-out ED50, for CC(COC1(Cc2ccccc2)CC2CCC1(C)C2(C)C)CN(C)C (racemic)
85

Data request, read-out ED50, for CN(C)CCOC1(c2ccccc2)CC2CCC1(C)C2(C)C (racemic)
23

Data request, read-out ED50, for CCN(CC)CCOC1(c2cccs2)CC2CCC1(C)C2(C)C (racemic)
50

Data request, read-out ED50, for CN(C)CCCOC1(Cc2ccccc2)CC2CCC1(C)C2(C)C (racemic) [Example 1]
120

----------
Give ED50 for every item shown.
- System: mice
- experimental protocol: potentiating of hexobarbital-narcosis (Kaergaard)
- Format: in vivo
- condition set: Mus musculus, iv; 40 mg/kg hexobarbital i.v.; positive: sleeping period at least 2.5 times control
Give the quantity in mg/kg, number only.

Data request, read-out ED50, for CCN(CC)CCCOC1(Cc2ccccc2)CC2CCC1(C)C2(C)C (racemic)
80

Data request, read-out ED50, for CC(COC1(Cc2ccccc2)CC2CCC1(C)C2(C)C)CN(C)C (racemic)
15

Data request, read-out ED50, for CCN(CC)CCOC1(Cc2ccccc2)CC2CCC1(C)C2(C)C (single isomer, unassigned)
60

Data request, read-out ED50, for CCN(CC)CCCOC1(c2cccs2)CC2CCC1(C)C2(C)C (racemic)
50

Data request, read-out ED50, for COc1ccc(C2(OCCCN(C)C)CC3CCC2(C)C3(C)C)cc1 (racemic)
80

Data request, read-out ED50, for CN(C)CCCOC1(Cc2ccc(Cl)cc2)CC2CCC1(C)C2(C)C (racemic)
130

Data request, read-out ED50, for CN(C)CCOC1(c2ccccc2)CC2CCC1(C)C2(C)C (racemic)
40

Data request, read-out ED50, for CN(C)CCCOC1(Cc2ccccc2)CC2CCC1(C)C2(C)C (racemic)
90

Data request, read-out ED50, for CCN(CC)CCOC1(Cc2ccc(Cl)cc2)CC2CCC1(C)C2(C)C (racemic)
200

Data request, read-out ED50, for CCN(CC)CCCOC1(c2ccccc2)CC2CCC1(C)C2(C)C (racemic)
20

Data request, read-out ED50, for CN(C)CCCOC1(c2ccccc2)CC2CCC1(C)C2(C)C (racemic)
64

Data request, read-out ED50, for CC(C)N(CCCOC1(Cc2ccccc2)CC2CCC1(C)C2(C)C)C(C)C (racemic)
120

Data request, read-out ED50, for CC(C)N(CCOC1(Cc2ccccc2)CC2CCC1(C)C2(C)C)C(C)C (racemic)
120

----------
Give ED50 for every item shown.
- Tested on: white mice
- experimental protocol: analgesic effect, inhibition of acetic acid "writhing" reactions (Wirth et al.)
- Type: in vivo
- condition set: Mus musculus; oral, 1 hour before i.p. 0.4 ml 0.5% acetic acid; read-out: Analgesic effect ED50
Give the quantity in mg/kg, number only.

Data request, read-out ED50, for CC(=O)Nc1ccc(O)cc1 [Paracetamole, N-(4-Hydroxyphenyl)-acetamide, reference compound]
180

Data request, read-out ED50, for CC(C)N(CCOC1(Cc2ccccc2)CC2CCC1(C)C2(C)C)C(C)C (racemic)
120

Data request, read-out ED50, for CC(COC1(c2ccc(Cl)cc2)CC2CCC1(C)C2(C)C)CN(C)C (single isomer, unassigned; (+))
200

Data request, read-out ED50, for CN(C)CCCOC1(c2ccccc2)CC2CCC1(C)C2(C)C (racemic)
50

Data request, read-out ED50, for CCN(CC)CCOC1(Cc2ccc(Cl)cc2)CC2CCC1(C)C2(C)C (racemic)
100

----------
- Test system: white mice
- experimental protocol: inhibition of maximal electroshock (MES) (Swinyard et al.)
- Type: in vivo
- condition set: therapeutic index, MES
Give Inhibition of MES Th. I. for every item shown.
Keep the answer to the number alone.

Data request, read-out Inhibition of MES Th. I., for CC(COC1(c2ccc(Cl)cc2)CC2CCC1(C)C2(C)C)CN(C)C (single isomer, unassigned; (+)) [Example 13]
14.3

Data request, read-out Inhibition of MES Th. I., for CC(C)N(CCCOC1(Cc2ccccc2)CC2CCC1(C)C2(C)C)C(C)C (racemic) [Example 5]
5.3

Data request, read-out Inhibition of MES Th. I., for CCN(CC)CCCOC1(c2ccccc2)CC2CCC1(C)C2(C)C (racemic) [Example 16]
23.3

Data request, read-out Inhibition of MES Th. I., for CCN(CC)CCCOC1(Cc2ccccc2)CC2CCC1(C)C2(C)C (racemic) [Example 6]
16.7

Data request, read-out Inhibition of MES Th. I., for CCN(CC)CCOC1(Cc2ccccc2)CC2CCC1(C)C2(C)C (single isomer, unassigned) [Example 8]
28.3

Data request, read-out Inhibition of MES Th. I., for CN(C)CCCOC1(Cc2ccccc2)CC2CCC1(C)C2(C)C (single isomer, unassigned) [Example 7]
21.4

Data request, read-out Inhibition of MES Th. I., for CN(C)CCCOC1(Cc2ccccc2)CC2CCC1(C)C2(C)C (racemic) [Example 1]
12.3

Data request, read-out Inhibition of MES Th. I., for CCN(CC)CCOC1(Cc2ccc(Cl)cc2)CC2CCC1(C)C2(C)C (racemic) [Example 12]
27.7

Data request, read-out Inhibition of MES Th. I., for CN1C(=O)OC(C)(C)C1=O [Trimethadion, 3,5,5-Trimethyl-2,4-oxazolidinedione, reference compound]
4.3

Data request, read-out Inhibition of MES Th. I., for CC(COC1(Cc2ccccc2)CC2CCC1(C)C2(C)C)CN(C)C (racemic) [Example 2]
14.2

Recorded values, source patent US4342762A.
